From: the supplement of paper PMC11061612

Tested on: SK-MES-1 (Squamous Cell Lung Carcinoma)
testProtocol: combination Emax (second highest fraction inhibited in the dose matrix, 72 h); higher = more inhibition; extreme values may be limits of the assay
Assign criterion met whenever combination Emax does not fall below 0.6; assign criterion not met whenever it does.

Solved cases (5 shown):
Problem: Could you tell me if the measured combination Emax of COc1cccc2c1C(=O)c1c(O)c3c(c(O)c1C2=O)C[C@@](O)(C(=O)CO)C[C@@H]3O[C@H]1C[C@H](N)[C@H](O)[C@H](C)O1 [Doxorubicin] + Cc1cc2ncnn2cc1Nc1ncc2c(n1)n(C1CCOCC1)c(=O)n2C [AZD7648] (first compound max 1 µM, 7x7, partner max 10 µM) reaches 0.6 or more?
Solution: criterion met

Problem: // query: CC(=O)c1c(C)c2cnc(Nc3ccc(N4CCNCC4)cn3)nc2n(C2CCCC2)c1=O [Palbociclib] + Cn1cnc2c(F)c(Nc3ccc(Br)cc3Cl)c(C(=O)NOCCO)cc21 [Selumetinib] (first compound max 10 µM, 7x7, partner max 10 µM)
Solution: criterion met

Problem: Another molecule: Cn1cnc2c(F)c(Nc3ccc(Br)cc3Cl)c(C(=O)NOCCO)cc21 [Selumetinib] + C[C@@H]1COCCN1C2=NC(=NC(=C2)C3(CC3)[S@](=N)(=O)C)C4=C5C=CNC5=NC=C4 [AZD6738] (first compound max 10 µM, 7x7, partner max 10 µM)
Solution: criterion met

Problem: Same thing, different molecule: CC1(C)CCC(CN2CCN(c3ccc(C(=O)NS(=O)(=O)c4ccc(NCC5CCOCC5)c([N+](=O)[O-])c4)c(Oc4cnc5[nH]ccc5c4)c3)CC2)=C(c2ccc(Cl)cc2)C1 [Venetoclax] + C1CN(CCC1(C(=O)N[C@@H](CCO)C2=CC=C(C=C2)Cl)N)C3=NC=NC4=C3C=CN4 [Capivasertib] (first compound max 1 µM, 7x7, partner max 3 µM)
Solution: criterion not met

Problem: Consider next the molecule CC1(C)CCC(CN2CCN(c3ccc(C(=O)NS(=O)(=O)c4ccc(NCC5CCOCC5)c([N+](=O)[O-])c4)c(Oc4cnc5[nH]ccc5c4)c3)CC2)=C(c2ccc(Cl)cc2)C1 [Venetoclax] + C[C@@H]1COCCN1C2=NC(=NC(=C2)C3(CC3)[S@](=N)(=O)C)C4=C5C=CNC5=NC=C4 [AZD6738] (first compound max 1 µM, 7x7, partner max 10 µM) in the same way.
Solution: criterion met

---
Problem: Confirm if combination Emax reported for the molecule COc1cccc(OCCCN)c1-c1cc(Nc2cnc(C#N)cn2)n[nH]1 [Prexasertib] + C=CCn1c(=O)c2cnc(Nc3ccc(N4CCN(C)CC4)cc3)nc2n1-c1cccc(C(C)(C)O)n1 [AZD1775] (first compound max 1 µM, partner max 1 µM) is 0.6 or above.
Solution: criterion met

Problem: Okay, and CN(C)CCCOc1ccc(-c2ccc3ncc4c(c3c2)n(C2CCOCC2)c(=O)n4C)cn1 [AZD0156] + C=CCn1c(=O)c2cnc(Nc3ccc(N4CCN(C)CC4)cc3)nc2n1-c1cccc(C(C)(C)O)n1 [AZD1775] (first compound max 1 µM, partner max 1 µM) ?
Solution: criterion not met

----------
System: U-698-M
testProtocol: Bliss excess, mean over the matrix (fraction); higher = more synergy
conditionSummary: first compound max 1 µM; partner max 10 µM; U-[…]; B-Cell Non-Hodgkin's Lymphoma; 7x7
Threshold rule: Bliss excess greater than or equal to 0.002 is Fulfilled; below that, Not fulfilled.

Look over these answered cases.
Problem: Is reported Bliss excess greater than or equal to 0.002 here: Cc1c2c(nn1C)CSCc1cc(n(C)n1)CSc1cc(c3ccccc3c1)OCCCc1c(C(=O)O)n(C)c3c-2c(Cl)ccc13 [AZD5991] + Cc1cc2ncnn2cc1Nc1ncc2c(n1)n(C1CCOCC1)c(=O)n2C [AZD7648]
Solution: Fulfilled

Problem: Thanks! And CCN(CCO)CCCOc1ccc2c(Nc3cc(CC(=O)Nc4cccc(F)c4)[nH]n3)ncnc2c1 [AZD2811] + O=C(c1cc(Cc2n[nH]c(=O)c3ccccc23)ccc1F)N1CCN(C(=O)C2CC2)CC1 [Olaparib] ?
Solution: Fulfilled

Problem: How about CCN(CCO)CCCOc1ccc2c(Nc3cc(CC(=O)Nc4cccc(F)c4)[nH]n3)ncnc2c1 [AZD2811] + C[C@@H]1COCCN1C2=NC(=NC(=C2)C3(CC3)[S@](=N)(=O)C)C4=C5C=CNC5=NC=C4 [AZD6738] ?
Solution: Not fulfilled

Problem: Next compound up: Cc1c2c(nn1C)CSCc1cc(n(C)n1)CSc1cc(c3ccccc3c1)OCCCc1c(C(=O)O)n(C)c3c-2c(Cl)ccc13 [AZD5991] + CS(=O)(=O)CCNCc1ccc(-c2ccc3ncnc(Nc4ccc(OCc5cccc(F)c5)c(Cl)c4)c3c2)o1 [Lapatinib]
Solution: Fulfilled

Problem: Check CC1(C)CCC(CN2CCN(c3ccc(C(=O)NS(=O)(=O)c4ccc(NCC5CCOCC5)c([N+](=O)[O-])c4)c(Oc4cnc5[nH]ccc5c4)c3)CC2)=C(c2ccc(Cl)cc2)C1 [Venetoclax] + C[C@@H]1COCCN1C2=NC(=NC(=C2)C3(CC3)[S@](=N)(=O)C)C4=C5C=CNC5=NC=C4 too.
Solution: Not fulfilled

Next:
Problem: Decide: Bliss excess of CC(=O)Nc1cccc(-n2c(=O)n(C3CC3)c(=O)c3c(Nc4ccc(I)cc4F)n(C)c(=O)c(C)c32)c1 [Trametinib] + Cc1nc(-c2cn3c(n2)-c2ccc(-c4cnn(C(C)(C)C(N)=O)c4)cc2OCC3)n(C(C)C)n1 >= 0.002?
Solution: Not fulfilled

----------
Tested on: TT (Thyroid Gland Carcinoma)
testProtocol: Bliss excess, mean over the matrix (fraction); higher = more synergy
Answer not met if Bliss excess is under -0.03, and met if it is -0.03 or more.

Worked examples follow.
Problem: Could you please find out whether Cc1cc2ncnn2cc1Nc1ncc2c(n1)n(C1CCOCC1)c(=O)n2C [AZD7648] + CCN(CCO)CCCOc1ccc2c(Nc3cc(CC(=O)Nc4cccc(F)c4)[nH]n3)ncnc2c1 [AZD2811] (first compound max 10 µM, 7x7, partner max 1 µM) has Bliss excess that meets -0.03 or exceeds it?
Solution: met

Problem: Field entry: CCN(CCO)CCCOc1ccc2c(Nc3cc(CC(=O)Nc4cccc(F)c4)[nH]n3)ncnc2c1 [AZD2811] + C[C@@H]1COCCN1C2=NC(=NC(=C2)C3(CC3)[S@](=N)(=O)C)C4=C5C=CNC5=NC=C4 [AZD6738] (first compound max 1 µM, 7x7, partner max 10 µM)
Solution: not met

Problem: Would you kindly repeat that for CC1(C)CCC(CN2CCN(c3ccc(C(=O)NS(=O)(=O)c4ccc(NCC5CCOCC5)c([N+](=O)[O-])c4)c(Oc4cnc5[nH]ccc5c4)c3)CC2)=C(c2ccc(Cl)cc2)C1 [Venetoclax] + C[C@@H](Nc1cc(F)cc(F)c1)c1cc(C(=O)N(C)C)cc2c(=O)cc(N3CCOCC3)oc12 [AZD8186] (first compound max 1 µM, 7x7, partner max 3 µM) ?
Solution: not met

Problem: How about O=C(c1cc(Cc2n[nH]c(=O)c3ccccc23)ccc1F)N1CCN(C(=O)C2CC2)CC1 [Olaparib] + CC1(C)CCC(CN2CCN(c3ccc(C(=O)NS(=O)(=O)c4ccc(NCC5CCOCC5)c([N+](=O)[O-])c4)c(Oc4cnc5[nH]ccc5c4)c3)CC2)=C(c2ccc(Cl)cc2)C1 [Venetoclax] (first compound max 10 µM, 7x7, partner max 1 µM) ?
Solution: met

Problem: Next record, please: CN(CCO)CC[C@H](CSc1ccccc1)Nc1ccc(S(=O)(=O)NC(=O)c2ccc(N3CCC([C@@H](O)c4ccccc4-c4ccc(Cl)cc4)CC3)cc2)cc1S(=O)(=O)C(F)(F)F [AZD4320] + CCN(CCO)CCCOc1ccc2c(Nc3cc(CC(=O)Nc4cccc(F)c4)[nH]n3)ncnc2c1 [AZD2811] (first compound max 1 µM, 7x7, partner max 1 µM)
Solution: met

Here's the next entry for you.
Problem: Does the compound CN(CCO)CC[C@H](CSc1ccccc1)Nc1ccc(S(=O)(=O)NC(=O)c2ccc(N3CCC([C@@H](O)c4ccccc4-c4ccc(Cl)cc4)CC3)cc2)cc1S(=O)(=O)C(F)(F)F [AZD4320] + Cn1cnc2c(F)c(Nc3ccc(Br)cc3Cl)c(C(=O)NOCCO)cc21 [Selumetinib] (first compound max 1 µM, 7x7, partner max 3 µM) have recorded Bliss excess that is -0.03 or more?
Solution: not met

----------
Tested on: ONS-76 (Other Solid Carcinomas)
testProtocol: combination Emax (second highest fraction inhibited in the dose matrix, 72 h); higher = more inhibition; extreme values may be limits of the assay
endpointLabel: combination Emax
Answer with a number only.

Look over these answered cases.
Problem: Query: combination Emax; subject: COc1nnc2ccc(N3CCC(c4ccc(OCCN5CCN(C)C(=O)[C@H]5C)cc4)CC3)nn12 [AZD5153] + C=CCn1c(=O)c2cnc(Nc3ccc(N4CCN(C)CC4)cc3)nc2n1-c1cccc(C(C)(C)O)n1 [AZD1775] (first compound max 1 µM, partner max 1 µM)
Solution: 0.601

Problem: // same read-out, input: CCN(CCO)CCCOc1ccc2c(Nc3cc(CC(=O)Nc4cccc(F)c4)[nH]n3)ncnc2c1 [AZD2811] + O=C(c1cc(Cc2n[nH]c(=O)c3ccccc23)ccc1F)N1CCN(C(=O)C2CC2)CC1 [Olaparib] (first compound max 1 µM, 7x7, partner max 10 µM)
Solution: 0.398

Problem: Same for Cc1cc2ncnn2cc1Nc1ncc2c(n1)n(C1CCOCC1)c(=O)n2C [AZD7648] + C[C@@H]1COCCN1C2=NC(=NC(=C2)C3(CC3)[S@](=N)(=O)C)C4=C5C=CNC5=NC=C4 [AZD6738] (first compound max 10 µM, 7x7, partner max 10 µM)
Solution: 0.825

Problem: Try COc1cccc(OCCCN)c1-c1cc(Nc2cnc(C#N)cn2)n[nH]1 [Prexasertib] + CCc1c2c(nc3ccc(O)cc13)-c1cc3c(c(=O)n1C2)COC(=O)[C@]3(O)CC [SN-38] (first compound max 1 µM, 7x7, partner max 0.3 µM) next.
Solution: 0.867

Problem: Can you check Cc1cc2ncnn2cc1Nc1ncc2c(n1)n(C1CCOCC1)c(=O)n2C [AZD7648] + COc1cc([C@@H]2c3cc4c(cc3[C@@H](O[C@@H]3O[C@@H]5CO[C@@H](C)O[C@H]5[C@H](O)[C@H]3O)[C@H]3COC(=O)[C@H]23)OCO4)cc(OC)c1O [Etoposide] (first compound max 10 µM, 7x7, partner max 10 µM) next?
Solution: 0.748

New cases:
Problem: Look up combination Emax: C=CCn1c(=O)c2cnc(Nc3ccc(N4CCN(C)CC4)cc3)nc2n1-c1cccc(C(C)(C)O)n1 [AZD1775] + C[C@@H]1COCCN1C2=NC(=NC(=C2)C3(CC3)[S@](=N)(=O)C)C4=C5C=CNC5=NC=C4 [AZD6738] (first compound max 1 µM, partner max 10 µM)
Solution: 0.942

Problem: What would you report for CCc1c2c(nc3ccc(O)cc13)-c1cc3c(c(=O)n1C2)COC(=O)[C@]3(O)CC [SN-38] + CN(C)CCCOc1ccc(-c2ccc3ncc4c(c3c2)n(C2CCOCC2)c(=O)n4C)cn1 [AZD0156] (first compound max 0.3 µM, 7x7, partner max 1 µM) ?
Solution: 0.805

Problem: Likewise for Cn1cnc2c(F)c(Nc3ccc(Br)cc3Cl)c(C(=O)NOCCO)cc21 [Selumetinib] + C=CCn1c(=O)c2cnc(Nc3ccc(N4CCN(C)CC4)cc3)nc2n1-c1cccc(C(C)(C)O)n1 [AZD1775] (first compound max 10 µM, partner max 1 µM) ?
Solution: 0.682

Problem: Ok, now C[C@@H]1COCCN1c1cc(C2([S@](C)(=N)=O)CC2)nc(-c2ccnc3[nH]ccc23)n1 [AZD6738] + O=C(c1cc(Cc2n[nH]c(=O)c3ccccc23)ccc1F)N1CCN(C(=O)C2CC2)CC1 [Olaparib] (first compound max 10 µM, 7x7, partner max 10 µM)
Solution: 0.894

Problem: Entry to check: CS(=O)(=O)CCNCc1ccc(-c2ccc3ncnc(Nc4ccc(OCc5cccc(F)c5)c(Cl)c4)c3c2)o1 [Lapatinib] + Cn1cnc2c(F)c(Nc3ccc(Br)cc3Cl)c(C(=O)NOCCO)cc21 [Selumetinib] (first compound max 10 µM, 7x7, partner max 10 µM)
Solution: 0.748

Problem: Request: NC1(C(=O)N[C@@H](CCO)c2ccc(Cl)cc2)CCN(c2ncnc3[nH]ccc23)CC1 [Capivasertib] + C[C@@H]1COCCN1C2=NC(=NC(=C2)C3(CC3)[S@](=N)(=O)C)C4=C5C=CNC5=NC=C4 [AZD6738] (first compound max 10 µM, 7x7, partner max 10 µM)
Solution: 0.852
